- ASSAY TEXT: yeast display, Sf9 membrane polyspecificity reagent, FACS + sequencing; frameworks hold sequencing errors
QUANTITY MEASURED: polyreactivity (PSR sort gate)

>>> result("QVQLVDSGGGLVQAGGRLRLSCAASGRTFSVNAMGWYRQAPGKERELVAAIRWRAGSTYYADSVKGRFTISRDNAKNTVYLQMNSLKPEDTAVYYCNAVTYGGRTLFPYDYWGQGTQVTVSS")
"high polyreactivity"
>>> result("QVQLLESGCGLVQAGGSLRLSCMASGSSLGDRMSWYRQAPGKEHELVATIYDGGITYYADSMKGRFTISRENAKNSVYLQMNSLRPEDTAVYYCGDSFEGYRYHVYCGQGTQVTVSS")
"low polyreactivity"
>>> result("QVQLVESGGGLVQAGGSLRISCAASGLTFDYNAMGWYTQAPGKERELVAAITSGGSTKYADSVKGRFTISRDNSKNTVYLQMNSLKPEDTAVYYCARDRPGDYAGYDYWGQGTQVTVSS")
"low polyreactivity"
>>> result("QVQLVESGGGLVQAGGSLRLSCAASGNTFHPYAMGWYRQAPGKVRELVAAITKSGGSTYYADSVKGRFTISRDNAKNTVYLQMNSLKPEDTAVYYCATDGYEYTDYGSSGYDYWGQGTQVTVSS")
"low polyreactivity"
>>> result("QFQLVESGGGLVQAGGSLRLSCAASGRIFFIYAMGWYRQAPGKERELVAGINRTGGSTNYADSVKGRFTISRDNAKNTVYLQMNSLKPEDTAVYYCAADIYDGGFDYWGQGTQVTVSS")
"low polyreactivity"
>>> result("QVQLVESGGGLVQAGGSLRLSCAASGRTFRYYAMGWYRQAPGKERELVAAITSGGSTYYADSVKGRFTISRDNAKNTVYLQMNSLKPEDTAVYYDYWGQGTQVTVSS")
"low polyreactivity"
>>> result("QVQLVESGGGLLQAGGSLRLSCPASGRIFDPYTMGSYRQAPGKERELVARITRRGGRTYYADSVKGRFTISRDNAKNTVYLQMNSLKPEDTAVYYCNADFSYRYYGAYDDWGQGTQVTVSS")
"high polyreactivity"
>>> result("QVQLVESGGGLVQAGGSLRLSCAASGSTFSGNAMGWYRQAPGKERELVAAISQSGGSTYYADSVKGRFTISRDNAKNTVYLQMNSLKPEDTAVYYCNRLYYFLARRMDSWGQGTQVTVSS")
"high polyreactivity"
>>> result("QVQLVESGGGLVQAGGSLRLSCAASGITFHRYDMVWYRQAPGKERELVADITWSGGSTYYADSVKVRFTISRDNAKNTVYLQMNSLKPEDTAVYYCAADASTYTYTPYDYWGQGTQVTVSS")
"low polyreactivity"
>>> result("QVQLVESGGGLVQAGGSLRISCAASAITFPRNAMGWYREAPGKERELVAAITSVGSTKYADSVKGRFTFSRDNAKNTVYLQMNSLKPEDTAVYYCATRGASAISNSVRWSYYYWGQGTQVTVSS")
"low polyreactivity"
>>> result("QVQHVESGGGLVQAGGSLPLSCAASGITFSKYAMGWYRQAPGKERELVAAITRSGGSTYYADSVKGRFTISRDNAKNTVYLQMNSLKPEDTAVYYCAAKRRERYGQTYGYWGQGTQVTVSS")
"high polyreactivity"
>>> result("QVQLVESGGGLVQAGGSLRLSCAASGRTLNTYTMGWYRQAPGKERELVAAITWRGGRTYYADSVKRRFTISRDYAKNTVYLQMNSLKPEDTAVYYCAAVRRNKPVGYGYWGQGTQVTVSS")
"high polyreactivity"
>>> result("QVQLVESGGGLVQAGGSLRLSCAASGIIFRYAMGWYRQAPGKERELVAAIRKSDGSTYYADSVKGRFTISRDNAKNTVYLQMNSLKPEDTAVYYCNAVTVGLYDYWGQGTQVTVSS")
"high polyreactivity"
>>> result("QVQLVESGGGLVQAGGSLRLSCAASGSIFSGYTMGWYRQAPGKERELVAGISYRGGSTYYADSVKGRFTISRDNAKNTVYLQMNSLKPEDTAVYYCAALYYRRGSLNYEYWGQGTQVTVSS")
"high polyreactivity"
>>> result("QVQLVESGGGLVQAGGSLRLSCAASGSIFGTYAMGWDRQARGQERALGAAIRWSSGSTYYADSVNGRFTISRDNATNTESLQMNSLKPADTAVYYCNAEYVYYWLGATFGYWGQGTQVTVSS")
"high polyreactivity"
>>> result("QVQLVESGGGLVQAGGSLRLSCAASGRTFKYYAMGWYRQAPGKERELVAAISRSGGSTYYADSVKGRFTISRDNAKNTVYLQMNSLKPEDTAVYYCNAEYLWIRHIAEDYWGQGTQVTVSS")
"low polyreactivity"
>>> result("QVQLVESGGGLVQAGGSLRLSCAASGSTFSYYAMGWYRQAPGKERELVAAISSRGGSTYYADSVKGRFTISRDNAMNNVYLQMNSLKPEDTAVYFCNADHQFRSSVSGDHDFWGQGTQVTVSS")
"high polyreactivity"
>>> result("QVQLVESGGGLVQAGGSLRLSCAASGRTFSSYAMGWYRQAPGKEREFVAAINKNGGSTFYADSVKGRFTISRDNAKNTVYFQMNSLKPEDTAVYYCNADTDWWNPYNYWGQGTQVTVST")
"low polyreactivity"
>>> result("QVQLVESGGGLVQAGGSLRLTCAASGSTLYSYAMGWYRPAPGKERELVAAISKSGGRTYYADSVKGRFTISRDNAKISVYLEMNSLKPEDTAVYYCAGREKYTPALEVEYWGQGTQVTVSS")
"high polyreactivity"
>>> result("QVQLVESGGGLVQAGGSLRLSCAASGRTFGYNAMGWYRQAPGKERELVAAINDGGSTNYADSVKGRFTISRDNAKNTVYLQMNSLKPEDTAVYYCATDFSNGRQSTFPYEYYYWGQGTQVTVSS")
"high polyreactivity"
>>> result("QVQLVESGGGLVQAGGSLRVSCAASGGTFTAYAMGGYIQAPGNERQLVAAISASGDSTYYADSVKGRFTISRDNPKHTVYLQMNSLKPDDTAVYYCAADWAYKYELDYWGQGTQVTVSS")
"low polyreactivity"
